Reference source: ChEMBL document CHEMBL2331302

- experimental_details: Binding affinity to Escherichia coli H69-2(pseudouridine)U RNA at 4- charge state at pH 7 after 30 mins by ESI-MS analysis
- condition_info: read-out: Kd(app)
reported_endpoint: Kd (µM)
Provide the reading as a plain figure in µM.

## Input Answer with the recorded Kd of "H-NQVANHQ-NH2" only.
## Output 28

====

- experimental_details: Binding affinity to human H69 RNA at pH 7 after 30 mins by ESI-MS analysis
- condition_info: read-out: Kd(app)
reported_endpoint: Kd (µM)
Provide the reading as a plain figure in µM.

## Input Answer with the recorded Kd of "H-NQVANHQ-NH2" only.
## Output 50
